- tgt: human TPO receptor (hTPOR) (Homo sapiens, UniProt P40238)
- Construct: expressed in transfected cells; host or cells: BaF-B03 (murine IL-3 dependent cell line)
- Sequence (P40238 26-635): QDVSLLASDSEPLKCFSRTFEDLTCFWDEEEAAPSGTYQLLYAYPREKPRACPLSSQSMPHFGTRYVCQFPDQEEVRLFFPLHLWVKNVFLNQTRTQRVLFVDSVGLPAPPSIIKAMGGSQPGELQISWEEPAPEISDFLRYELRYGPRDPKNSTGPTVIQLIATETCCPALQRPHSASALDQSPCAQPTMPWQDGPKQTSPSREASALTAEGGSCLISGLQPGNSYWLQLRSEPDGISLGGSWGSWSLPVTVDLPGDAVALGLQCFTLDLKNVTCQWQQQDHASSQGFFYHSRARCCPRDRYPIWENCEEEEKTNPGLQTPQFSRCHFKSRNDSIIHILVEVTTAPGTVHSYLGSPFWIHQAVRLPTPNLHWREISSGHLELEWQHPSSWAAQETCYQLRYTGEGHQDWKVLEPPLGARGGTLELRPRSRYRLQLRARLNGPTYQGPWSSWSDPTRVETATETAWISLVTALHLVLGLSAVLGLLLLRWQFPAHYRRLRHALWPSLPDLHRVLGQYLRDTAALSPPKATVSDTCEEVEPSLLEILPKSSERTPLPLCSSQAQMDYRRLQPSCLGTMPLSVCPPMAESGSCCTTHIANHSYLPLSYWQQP
- assay info: Thrombopoietic activity: proliferation of TPO dependent BaF/hTPOR cells (WST-1, absorbance at 450 nm)
- Assay type: cell-based
- experimental setup: 20 h + 4 h WST-1, ED50 = half concentration of the concentration showing the maximum thrombopoietic activity, Table 1
pEC50: −log10 of the molar value.
result type: pEC50

Example entries begin here.
CCCC(OCC)c1cccc(-c2csc(NC(=O)c3cc(F)c(C=C(C)C(=O)O)c(F)c3)n2)c1F (centres unmarked) :: 8.71
CCC(CC)COCc1cccc(-c2csc(NC(=O)c3cc(F)c(/C=C(\C)C(=O)O)c(F)c3)n2)c1OC :: 8.19
CCCCOCCCc1cccc2c1CCc1sc(NC(=O)c3cc(Cl)c(C=C(C)C(=O)O)c(Cl)c3)nc1-2 :: 9.06
COc1c(CCOCCCC(C)C)cccc1-c1csc(NC(=O)c2cc(Cl)c(/C=C(\C)C(=O)O)c(Cl)c2)n1 :: 7.87
CCCCOC(CCC)c1cccc(-c2csc(NC(=O)c3cc(Cl)c(C=C(C)C(=O)O)c(Cl)c3)n2)c1F (centres unmarked) :: 9.11
COc1c(CCCOCCC(C)(C)C)cccc1-c1csc(NC(=O)c2cc(F)c(/C=C(\C)C(=O)O)c(F)c2)n1 :: 7.77
CCCOCCCc1cccc(-c2csc(NC(=O)c3cc(F)c(/C=C(\C)C(=O)O)c(F)c3)n2)c1OC :: 7.63
COc1c(COCCCC(C)C)cccc1-c1csc(NC(=O)c2cc(Cl)c(/C=C(\C)C(=O)O)c(Cl)c2)n1 :: 7.73

a: CCCCCCCCCC(OC)c1cccc(-c2csc(NC(=O)c3cc(Cl)c(/C=C(\C)C(=O)O)c(Cl)c3)n2)c1OC (centres unmarked)
b: CCCCC(OCC)c1cccc(-c2csc(NC(=O)c3cc(F)c(C=C(C)C(=O)O)c(F)c3)n2)c1F (centres unmarked)
Problem: Could you tell me which of these two has the smaller pEC50 figure? First: a Second: b Reply with the label of the item you choose.
Result: a
